Reported Ki values follow for various molecules
Target: Mcl-1 (Homo sapiens (Human))
Sequence (Q07820 172-327): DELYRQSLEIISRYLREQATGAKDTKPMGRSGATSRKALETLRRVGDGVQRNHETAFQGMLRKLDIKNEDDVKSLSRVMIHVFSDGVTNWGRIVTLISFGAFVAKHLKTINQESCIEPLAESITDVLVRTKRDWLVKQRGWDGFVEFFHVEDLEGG
Assay: Fluorescence polarization anisotropy (FPA) competition assay, FITC-Bak or FITC-Bim BH3 peptide
Format: binding
Conditions: read-out: Ki for Inhibition of Mcl-1 by FPA assay
Please give a number only; it is taken to be in nM.

Some entries whose results are on file:
molecule="Cc1cc(OCCCc2c(C(=O)N3CCC(C(=O)O)C3)[nH]c3c(-c4c(C)ncnc4C)c(Cl)ccc23)cc(C)c1Cl (centres unmarked) [Example 745]" experimental_result=44
molecule="Cc1cc(CCCCc2c(C(=O)N3CCN(c4ccccc4C(=O)O)CC3)[nH]c3c(-c4c(C)nn(C)c4C)c(Cl)ccc23)cc(C)c1Cl [Example 744]" experimental_result=30
molecule="Cc1cc(OCCCc2c3n(c4c(-c5c(C)nn(C)c5C)c(Cl)ccc24)[C@H](C)CN(c2cn(C)c4ccc(C(=O)O)cc24)C3=O)ccc1Cl [Example 407]" experimental_result=1.1
molecule="Cc1cc(OCCCc2c3n(c4c(-c5c(C)nn(C)c5C)c(Cl)ccc24)[C@H](C)CN(c2cccc4cc(C(=O)O)n(CCN(C)C)c24)C3=O)cc(C)c1Cl [Example 322]" experimental_result=1.7
molecule="Cc1cc(OCCCc2c(C(=O)N3CCN(c4cccc(C(=O)O)c4)CC3)n(Cc3cccnc3)c3c(-c4c(C)nn(C)c4C)c(Cl)ccc23)cc(C)c1Cl [Example 735]" experimental_result=52

Qu. // Ki lookup, key: CCn1ncc2cc(C(=O)O)cc(N3CCCn4c(c(CCCOc5cc(C)c(Cl)c(C)c5)c5ccc(Cl)c(-c6c(C)nn(C)c6C)c54)C3=O)c21 [Example 122]
Ans. 2.2

Qu. // Ki lookup, key: CC(=O)N1CCN(Cc2nc(C)c(-c3c(Cl)ccc4c(CCCOc5cc(C)c(Cl)c(C)c5)c5n(c34)[C@H](C)CN(c3cn(C)c4ccc(C(=O)O)cc34)C5=O)c(C)n2)CC1 [Example 433]
Ans. 1.7

Qu. // Ki lookup, key: Cc1cc(OCCCc2c3n(c4c(-c5c(C)nn(CCN6CCCC6)c5C)c(Cl)ccc24)[C@H](C)CN(c2cn(C)c4ccc(C(=O)O)cc24)C3=O)cc(C)c1Cl [Example 263]
Ans. 1.8
